tested on: PXR:RXRa (NR concentration 270 nM, RXRa partner concentration 90 nM); assay: PBM binding z-score (relative to random genomic background probes); higher = stronger binding; sequences stand for … in GC…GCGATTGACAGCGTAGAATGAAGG
Measured attribute: PBM binding z-score
Number, no unit, nothing else.

Some entries whose results are on file:
Primary sequence: GGAACGAGGGCATGCGAGTTGATAGCATGGCGAT
Measured number: 3.59
--
Primary sequence: ATCGAAAGGTCGAATGTGAGTATACCCACCCGAA
Measured number: 2.5
--
Primary sequence: GATACAGGGTCGAGGCCAGAGTACGCGTATTGAT
Measured number: 0.68
--
Primary sequence: TCGAGTAGGTTAGGGGCATTAAGAATGGCGTCGA
Measured number: 0.596
--
Primary sequence: TCTAGCAGGCCAGGGGGTCACTCAAGAGGTACGG
Measured number: 4.43
--
Primary sequence: CTACCAAGGTGAACAAGGTCGTGGATTACTATTC
Measured number: 2.46

Query: I'm curious: which PBM binding z-score was measured for TCTATTAGTTGATTAGGGCAACAGAAACAGCGGA tested on PXR:RXRa (NR concentration 270 nM, RXRa partner concentration 90 nM)?
Reply: 0.573

Query: Notebook: pull reported PBM binding z-score for PXR:RXRa (NR concentration 270 nM, RXRa partner concentration 90 nM), entry ACAGCCAGGTGATGAAGGTAACTCAGGCTATCAT
Reply: -0.407

###

Listed next: entries and their corresponding PBM binding z-score.
system: RARg homodimer (NR concentration 270 nM); test: PBM binding z-score (relative to random genomic background probes); higher = stronger binding; sequences stand for … in GC…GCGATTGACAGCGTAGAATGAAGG
Give the figure by itself; no unit, no explanation.

// worked examples, PBM binding z-score included
Primary sequence: GGACCAAGGTGAATAGGTCGTTGATGAGTAGGCG
Study system: RARg homodimer (NR concentration 270 nM)
PBM binding z-score: 1.51
--
Primary sequence: CCAGACAGGTGAGAAGGTAACGCAGCCTCGATTA
Study system: RARg homodimer (NR concentration 270 nM)
PBM binding z-score: 0.415

From here, focus on the item given below.
Query: Under RARg homodimer (NR concentration 270 nM): PBM binding z-score value of TCTGACAGGTGAAGGTAACTCAGGTACGCAGTCG ?
Reply: 0.639

###

tested on: PPARg DBDmut:RXRa IVT, anti-PPARg (DBD mutation: PPARg1 K132A/R137A, NR concentration 270 nM, RXRa partner concentration 90 nM); assay: PBM binding z-score (relative to random genomic background probes); higher = stronger binding; sequences stand for … in GC…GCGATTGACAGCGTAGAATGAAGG
Entries and their PBM binding z-score
Give your answer as a number; write no unit.

Primary sequence: CCTACTGGACCAAAGGTCATTGATTCCAATGCTC
PBM binding z-score: 0.797
//
Primary sequence: TCATATAGGTATATGCTAGGTGAAAGTCCGATCT
PBM binding z-score: 0.908
//
Primary sequence: CCTTACGGGTCACTGACAGGTTATCGCATTTGGA
PBM binding z-score: 0.381
//
Primary sequence: ACAATGAGGTTATTAAGATCAGGGAATTGCGGTC
PBM binding z-score: 1.27
//
Primary sequence: TTACCAAGGTGAGCTGAGGCCGTTGATCCAACTC
PBM binding z-score: -0.955

# context switch: different sequence, same PBM binding z-score
Query: Which PBM binding z-score value belongs to TAGCCTAGGTCATTCAGGGGCCAGTATCGAAAGC ?
Reply: 0.988

Sourced from the supplement of paper PMC6555819
